- Test system: Streptococcus pyogenes
- Assay: Subcutaneously administration into mice infected with Streptococcus pyogenes C 203
- Type: functional
- Condition Set: sc
// reported ED50 for each item listed
Reply with the number, then its unit.

Answered examples (4):
>  <Smiles Representation>
CC(=O)N[C@@H]1[C@H](O[C@@H]2c3ccc(c(Cl)c3)Oc3cc4cc(c3O)Oc3ccc(cc3Cl)C[C@H]3NC(=O)[C@H](N)c5ccc(O)c(c5)Oc5cc(O)cc(c5)[C@H](NC3=O)C(=O)N[C@H]4C(=O)N[C@H]3C(=O)N[C@@H]2C(=O)N[C@H](C(=O)NCCN2CCOCC2)c2cc(O)cc(O[C@H]4O[C@H](CO)[C@@H](O)[C@@H](O)[C@@H]4O)c2-c2cc3ccc2O)O[C@@H](CO)[C@@H](O)[C@@H]1O

>  <ED50>
1.6 mg/kg

$$$$
>  <Smiles Representation>
N[C@H]1C(=O)N[C@@H]2Cc3ccc(c(Cl)c3)Oc3cc4cc(c3O)Oc3ccc(cc3Cl)[C@@H](O)[C@@H]3NC(=O)[C@H](NC(=O)[C@@H]4NC(=O)[C@@H](NC2=O)c2cc(O)cc(c2)Oc2cc1ccc2O)c1ccc(O)c(c1)-c1c(O)cc(O)cc1[C@@H](C(=O)NCCCCCC(=O)N[C@@H]1[C@@H](O)[C@@H](O)[C@@H](CO)O[C@H]1O)NC3=O

>  <ED50>
2.9 mg/kg

$$$$
>  <Smiles Representation>
CC(=O)N[C@@H]1[C@H](O[C@@H]2c3ccc(c(Cl)c3)Oc3cc4cc(c3O[C@@H]3O[C@@H](CO)[C@@H](O)[C@H](O)[C@@H]3NC(=O)CCCCCCC(C)C)Oc3ccc(cc3Cl)C[C@H]3NC(=O)[C@H](N)c5ccc(O)c(c5)Oc5cc(O)cc(c5)[C@H](NC3=O)C(=O)N[C@H]4C(=O)N[C@H]3C(=O)N[C@@H]2C(=O)N[C@H](C(=O)NCc2ccccn2)c2cc(O)cc(O[C@H]4O[C@H](CO)[C@@H](O)[C@@H](O)[C@@H]4O)c2-c2cc3ccc2O)O[C@@H](CO)[C@@H](O)[C@@H]1O

>  <ED50>
0.08 mg/kg

$$$$
>  <Smiles Representation>
CCCCN(CCCC)CCCNC(=O)[C@H]1NC(=O)[C@H]2NC(=O)[C@H](NC(=O)[C@@H]3NC(=O)[C@H]4NC(=O)[C@@H](Cc5ccc(c(Cl)c5)Oc5cc3cc(c5O)Oc3ccc(cc3Cl)[C@H]2O)NC(=O)[C@H](N)c2ccc(O)c(c2)Oc2cc(O)cc4c2)c2ccc(O)c(c2)-c2c(O)cc(O)cc21

>  <ED50>
0.72 mg/kg

$$$$

Please examine the following record next.
I looked up `CC(=O)N[C@@H]1[C@H](O[C@@H]2c3ccc(c(Cl)c3)Oc3cc4cc(c3O)Oc3ccc(cc3Cl)C[C@H]3NC(=O)[C@H](N)c5ccc(O)c(c5)Oc5cc(O)cc(c5)[C@H](NC3=O)C(=O)N[C@H]4C(=O)N[C@H]3C(=O)N[C@@H]2C(=O)N[C@H](C(=O)N2CCSCC2)c2cc(O)cc(O[C@H]4O[C@H](CO)[C@@H](O)[C@@H](O)[C@@H]4O)c2-c2cc3ccc2O)O[C@@H](CO)[C@@H](O)[C@@H]1O` and its ED50 for Streptococcus pyogenes was 1.6 mg/kg

---

// reported MIC for each item listed
- Tested on: Pseudomonas aeruginosa
- Assay: In vitro minimum inhibitory concentration against Pseudomonas aeruginosa ATCC 10145
- Format: functional
Give the value in µg/mL but do not write µg/mL after it.

Answered examples (4):
>  <Molecule>
CN1CCN(C(=O)[C@H]2NC(=O)[C@H]3NC(=O)[C@H](NC(=O)[C@@H]4NC(=O)[C@H]5NC(=O)[C@@H](Cc6ccc(c(Cl)c6)Oc6cc4cc(c6O)Oc4ccc(cc4Cl)[C@H]3O)NC(=O)[C@H](N)c3ccc(O)c(c3)Oc3cc(O)cc5c3)c3ccc(O)c(c3)-c3c(O)cc(O)cc32)CC1

>  <MIC [µg/mL]>
32

$$$$
>  <Molecule>
CNCCCNC(=O)[C@H]1NC(=O)[C@H]2NC(=O)[C@H](NC(=O)[C@@H]3NC(=O)[C@H]4NC(=O)[C@@H](Cc5ccc(c(Cl)c5)Oc5cc3cc(c5O)Oc3ccc(cc3Cl)[C@H]2O)NC(=O)[C@H](N)c2ccc(O)c(c2)Oc2cc(O)cc4c2)c2ccc(O)c(c2)-c2c(O)cc(O)cc21

>  <MIC [µg/mL]>
16

$$$$
>  <Molecule>
CN(C)CCCNC(=O)[C@H]1NC(=O)[C@H]2NC(=O)[C@H](NC(=O)[C@@H]3NC(=O)[C@H]4NC(=O)[C@@H](Cc5ccc(c(Cl)c5)Oc5cc3cc(c5O)Oc3ccc(cc3Cl)[C@H]2O)NC(=O)[C@H](N)c2ccc(O)c(c2)Oc2cc(O)cc4c2)c2ccc(O)c(c2)-c2c(O)cc(O)cc21

>  <MIC [µg/mL]>
32

$$$$
>  <Molecule>
CN(C)CCCCCNC(=O)[C@H]1NC(=O)[C@H]2NC(=O)[C@H](NC(=O)[C@@H]3NC(=O)[C@H]4NC(=O)[C@@H](Cc5ccc(c(Cl)c5)Oc5cc3cc(c5O)Oc3ccc(cc3Cl)[C@H]2O)NC(=O)[C@H](N)c2ccc(O)c(c2)Oc2cc(O)cc4c2)c2ccc(O)c(c2)-c2c(O)cc(O)cc21

>  <MIC [µg/mL]>
64

$$$$

Please examine the following record next.
Record summary for CCN1CCCC1CNC(=O)[C@H]1NC(=O)[C@H]2NC(=O)[C@H](NC(=O)[C@@H]3NC(=O)[C@H]4NC(=O)[C@@H](Cc5ccc(c(Cl)c5)Oc5cc3cc(c5O)Oc3ccc(cc3Cl)[C@H]2O)NC(=O)[C@H](N)c2ccc(O)c(c2)Oc2cc(O)cc4c2)c2ccc(O)c(c2)-c2c(O)cc(O)cc21 (stereo partly specified) : reported MIC = 64

---

- Test system: Streptococcus pneumoniae
- Assay: In vitro minimum inhibitory concentration against Streptococcus pneumoniae UC41
- Type: functional
Recorded Endpoint: MIC (µg/mL)
Give the value in µg/mL but do not write µg/mL after it.

Answered examples (5):
>  <Smiles Representation>
N[C@H]1C(=O)N[C@@H]2Cc3ccc(c(Cl)c3)Oc3cc4cc(c3O)Oc3ccc(cc3Cl)[C@@H](O)[C@@H]3NC(=O)[C@H](NC(=O)[C@@H]4NC(=O)[C@@H](NC2=O)c2cc(O)cc(c2)Oc2cc1ccc2O)c1ccc(O)c(c1)-c1c(O)cc(O)cc1[C@@H](C(=O)NCCN1CCOCC1)NC3=O

>  <Target Entity>
Streptococcus pneumoniae

>  <Recorded Endpoint>
MIC

>  <Measure Unit>
µg/mL

>  <Endpoint Result>
0.12

$$$$
>  <Smiles Representation>
CC(=O)N[C@@H]1[C@H](O[C@@H]2c3ccc(c(Cl)c3)Oc3cc4cc(c3O[C@@H]3O[C@@H](CO)[C@@H](O)[C@H](O)[C@@H]3NC(=O)CCCCCCC(C)C)Oc3ccc(cc3Cl)C[C@H]3NC(=O)[C@H](N)c5ccc(O)c(c5)Oc5cc(O)cc(c5)[C@H](NC3=O)C(=O)N[C@H]4C(=O)N[C@H]3C(=O)N[C@@H]2C(=O)N[C@H](C(=O)NCCCCN)c2cc(O)cc(O[C@H]4O[C@H](CO)[C@@H](O)[C@@H](O)[C@@H]4O)c2-c2cc3ccc2O)O[C@@H](CO)[C@@H](O)[C@@H]1O

>  <Target Entity>
Streptococcus pneumoniae

>  <Recorded Endpoint>
MIC

>  <Measure Unit>
µg/mL

>  <Endpoint Result>
0.12

$$$$
>  <Smiles Representation>
CN(C)CCCCCNC(=O)[C@H]1NC(=O)[C@H]2NC(=O)[C@H](NC(=O)[C@@H]3NC(=O)[C@H]4NC(=O)[C@@H](Cc5ccc(c(Cl)c5)Oc5cc3cc(c5O)Oc3ccc(cc3Cl)[C@H]2O)NC(=O)[C@H](N)c2ccc(O)c(c2)Oc2cc(O)cc4c2)c2ccc(O)c(c2)-c2c(O)cc(O)cc21

>  <Target Entity>
Streptococcus pneumoniae

>  <Recorded Endpoint>
MIC

>  <Measure Unit>
µg/mL

>  <Endpoint Result>
0.12

$$$$
>  <Smiles Representation>
CCCCN(CCCC)CCCNC(=O)[C@H]1NC(=O)[C@H]2NC(=O)[C@H](NC(=O)[C@@H]3NC(=O)[C@H]4NC(=O)[C@@H](Cc5ccc(c(Cl)c5)Oc5cc3cc(c5O)Oc3ccc(cc3Cl)[C@H]2O)NC(=O)[C@H](N)c2ccc(O)c(c2)Oc2cc(O)cc4c2)c2ccc(O)c(c2)-c2c(O)cc(O)cc21

>  <Target Entity>
Streptococcus pneumoniae

>  <Recorded Endpoint>
MIC

>  <Measure Unit>
µg/mL

>  <Endpoint Result>
0.12

$$$$
>  <Smiles Representation>
N[C@H]1C(=O)N[C@@H]2Cc3ccc(c(Cl)c3)Oc3cc4cc(c3O)Oc3ccc(cc3Cl)[C@@H](O)[C@@H]3NC(=O)[C@H](NC(=O)[C@@H]4NC(=O)[C@@H](NC2=O)c2cc(O)cc(c2)Oc2cc1ccc2O)c1ccc(O)c(c1)-c1c(O)cc(O)cc1[C@@H](C(=O)NCCCCCC(=O)N[C@@H]1[C@@H](O)[C@@H](O)[C@@H](CO)O[C@H]1O)NC3=O

>  <Target Entity>
Streptococcus pneumoniae

>  <Recorded Endpoint>
MIC

>  <Measure Unit>
µg/mL

>  <Endpoint Result>
0.25

$$$$

Please examine the following record next.
Record summary for `NCCNC(=O)[C@H]1NC(=O)[C@H]2NC(=O)[C@H](NC(=O)[C@@H]3NC(=O)[C@H]4NC(=O)[C@@H](Cc5ccc(c(Cl)c5)Oc5cc3cc(c5O)Oc3ccc(cc3Cl)[C@H]2O)NC(=O)[C@H](N)c2ccc(O)c(c2)Oc2cc(O)cc4c2)c2ccc(O)c(c2)-c2c(O)cc(O)cc21` : reported MIC = 0.12
